Source of measurements: paper PMC6413121

# Protocol notes: in vitro
# Assay type: cell-based, human
# Experimental parameters: human; concentration causing 50% growth inhibition; read-out: Cytotoxic activity IC50, SK-MEL
# Experimental: In vitro cytotoxicity was determined against a panel of mammalian cells that included kidney fibroblast (Vero), kidney epithelial (LLC-PK11), malignant melanoma (SK-MEL), oral epidermal carcinoma (KB), breast ductal carcinoma (BT-549), and ovary carcinoma (SK-OV-3) cells Doxorubicin was used as a positive control.
pIC50: −log10 of the molar value.

- Compound: "C=C1C(C)C2C(Cc3ccccc3)NC(=O)C23C(C=CCC(C)C(=O)C(C)(O)C2OC2C3OC(C)=O)C1O (stereo not drawn)"
  pIC50: "< 5.00"
- Compound: "CC(=O)OC1C2OC2C(C)(O)C(=O)C(C)CC=CC2C(O)C(C)=C(C)C3C(Cc4ccccc4)NC(=O)C213 (stereo not drawn)"
  pIC50: 5.10
- Compound: "CC(=O)OC1C2OC2C(C)C(=O)C(C)CC=CC2C(O)C(C)=C(C)C3C(Cc4ccccc4)NC(=O)C213 (stereo not drawn)"
  pIC50: "< 5.00"
